assayed_target: Recombinant hTRL4/MD2 complex (Homo sapiens, UniProt O00206+Q9Y6Y9)
Sequence (O00206 24-631 limits assumed): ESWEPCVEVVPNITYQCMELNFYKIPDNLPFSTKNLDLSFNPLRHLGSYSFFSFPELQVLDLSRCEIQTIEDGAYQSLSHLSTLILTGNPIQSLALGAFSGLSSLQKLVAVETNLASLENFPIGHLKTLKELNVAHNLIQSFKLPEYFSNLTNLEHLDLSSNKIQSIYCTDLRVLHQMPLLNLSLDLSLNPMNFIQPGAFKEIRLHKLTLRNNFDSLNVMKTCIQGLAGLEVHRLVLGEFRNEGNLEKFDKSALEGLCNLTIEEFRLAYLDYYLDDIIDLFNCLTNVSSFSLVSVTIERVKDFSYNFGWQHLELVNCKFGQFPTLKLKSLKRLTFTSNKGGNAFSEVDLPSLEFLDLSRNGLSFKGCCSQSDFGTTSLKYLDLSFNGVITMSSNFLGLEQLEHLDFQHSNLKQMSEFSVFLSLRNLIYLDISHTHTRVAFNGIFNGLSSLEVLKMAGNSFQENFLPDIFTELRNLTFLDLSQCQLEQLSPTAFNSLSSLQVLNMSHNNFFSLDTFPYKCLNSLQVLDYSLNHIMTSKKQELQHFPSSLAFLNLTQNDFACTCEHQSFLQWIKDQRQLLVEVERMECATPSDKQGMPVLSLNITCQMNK
Sequence (Q9Y6Y9 17-160 limits assumed): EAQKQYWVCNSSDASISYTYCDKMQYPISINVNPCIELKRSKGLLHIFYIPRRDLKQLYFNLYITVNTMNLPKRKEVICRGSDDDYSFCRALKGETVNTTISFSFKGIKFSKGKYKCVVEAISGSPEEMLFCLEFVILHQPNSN
procedure_details: Surface plasmon resonance direct binding (Biacore T200)
condition_summary: SPR, immobilized hTRL4/MD2, 6.25 up to 200 μM
measurement_kind: pKd
Recall that pKd is obtained by taking minus log10 of the concentration measured in molar.

Problem: Field: pKd (Recombinant hTRL4/MD2 complex (Homo sapiens, UniProt O00206+Q9Y6Y9)). Entry: `O=C(NCCc1c[nH]c2ccccc12)c1ccc(Cl)cc1`
Result: 6.13

====

Each entry below carries its recorded pIC50.
Test system: CHO-K1 (Chinese hamster ovary)
procedure_details: MTT cytotoxicity assay
Assay type: cell-based
condition_summary: Cricetulus griseus, CHO-K1 cells, 24 h exposure, mean of 2–3 independent measurements, read-out: IC50 and SEM
Recall that pIC50 is obtained by taking minus log10 of the concentration measured in molar.

In the examples that follow, each entry is paired with its recorded pIC50.
{"columns": ["smiles_notation", "pIC50"],
 "data": [
  ["CC(C)CCC(=O)NCCc1c[nH]c2ccccc12", 3.46],
  ["COc1ccc(C(=O)NCCc2c[nH]c3ccccc23)cc1", 3.70],
  ["O=C(NCCc1c[nH]c2ccccc12)c1ccc2c(c1)CCCC2", 4.01],
  ["O=C(NCCc1c[nH]c2ccccc12)c1ccc(Cl)cc1", 3.70]
]}

Problem: # input compound: `O=C(NCCc1c[nH]c2ccccc12)C1CCCCCC1` ; wanted: its pIC50
Result: 3.77

====

Each entry below carries its recorded melting point.

Problem: # input compound: `COc1ccc(C(=O)NCCc2c[nH]c3ccccc23)cc1` ; wanted: its melting point
Result: 132.8 to 134.3 °C

Problem: # input compound: O=C(NCCc1c[nH]c2ccccc12)c1cccc2ccccc12 [Compound 21, N-(2-(1H-Indol-3-yl)ethyl)-1-naphthamide] ; wanted: its melting point
Result: 164.5 to 166.5 °C

Problem: # input compound: `CC(C)CCC(=O)NCCc1c[nH]c2ccccc12` ; wanted: its melting point
Result: 45.1 to 47.1 °C

Problem: # input compound: `O=C(NCCc1c[nH]c2ccccc12)C1CCCCCC1` ; wanted: its melting point
Result: 88.4 to 90.4 °C

Problem: # input compound: `O=C(NCCc1c[nH]c2ccccc12)c1ccc(Cl)c(Cl)c1` ; wanted: its melting point
Result: 112.4 to 113.9 °C

====

Each entry below carries its recorded melting point.

In the examples that follow, each entry is paired with its recorded melting point.
{"columns": ["compound", "melting point"],
 "data": [
  ["O=C(NCCc1c[nH]c2ccccc12)c1ccc2ccccc2c1 [Compound 19, N-(2-(1H-Indol-3-yl)ethyl)-2-naphthamide]", "193.2 to 195 °C"],
  ["O=C(NCCc1c[nH]c2ccccc12)C1CCCCC1 [Compound 20]", "104.8 to 106.3 °C"],
  ["O=C(NCCc1c[nH]c2ccccc12)C1CCc2ccccc2C1 (stereo not shown) [Compound 22]", "123.2 to 125.2 °C"]
]}

Continue with the compound presented below.
Problem: # input compound: O=C(NCCc1c[nH]c2ccccc12)c1ccc2c(c1)CCCC2 [Compound 23] ; wanted: its melting point
Result: 137 to 139 °C
